system: MDA-MB-435 melanoma; experiment: NCI-60 one-dose screen, 48 h (100 = growth as untreated, 0 = no growth, -100 = all killed); settings: 10 µM unless noted
Compounds without any hit were thinned out: in the full panel of roughly 83,000, 20% have a hit.
Threshold-based label: growth under 60% gives MET, growth not under 60% gives NOT MET.

| Compound | Label class |
| --- | --- |
| COc1cc(/C=C2\CN(S(=O)(=O)c3ccc(C)cc3)C/C(=C\c3cc(CN4CCOCC4)c(O)c(OC)c3)C2=O)cc(CN2CCOCC2)c1O | MET |
| CCCCCCCCN(CCO)CCCCCCCC | NOT MET |
| O=C(Nc1cccc(-n2cc(-c3ccncc3)c(-c3cc(O)cc(Cl)c3)n2)c1)Nc1ccc(Cl)c(Cl)c1 | MET |
| NS(=O)(=O)N(c1cc(C(F)(F)F)cc(C(F)(F)F)c1)C1CCN(Cc2ccc(C(F)(F)F)cc2)CC1 | MET |
| Cc1ccc2nc(SCC(=O)Nc3ccc(-c4nc5ccccc5s4)c(Cl)c3)[nH]c2c1 | NOT MET |
| CC1Cc2ccccc2N1C(=O)c1ccc(C(=O)c2ccccc2)cc1 (stereo not drawn) | NOT MET |
| COc1cccc2c1C(=O)c1c(O)c3c(c(O)c1C2=O)C[C@@](O)(C(C)=O)C[C@@H]3O[C@H]1C[C@H](N)[C@H](O)[C@H](C)O1 | MET |

---

test system: SF-295 CNS; experiment: NCI-60 one-dose screen, 48 h (100 = growth as untreated, 0 = no growth, -100 = all killed); details: 10 µM unless noted
This is part of a sample that, as a whole, favours compounds with a hit. Of some 83,000 tested, about 20% had one in any assay.

| Compound | growth, % |
| --- | --- |
| CCOC(=O)C(Br)=P(c1ccccc1)(c1ccccc1)c1ccccc1 | 110 |
| O=C(COc1ccc(/C=C2\Oc3ccc4ccccc4c3C2=O)cc1)c1ccc([N+](=O)[O-])cc1 | 105 |
| Cc1cc(Cl)ccc1Nc1nc(C(F)(F)F)ccc1C(=O)N/N=C/c1ccc(Cl)cc1 | -41.8 |
| CC[N+](CCCCCCCCCC[N+](CC)(c1ccccn1)c1ccccn1)(c1ccccn1)c1ccccn1 | -71.2 |
| CCOC(=O)c1sc(NC(=O)COc2cccc(/C=C3\CCc4cc(OC)ccc4C3=O)c2)nc1C | 90.3 |
| CC1(C)CC2(C)CC(=O)C1C(C(=O)O)C2C(=O)O (stereo not given) | 105 |
| COC(=O)C1=CCC(n2cnc3c(N)ncnc32)O1 (stereo not given) | 113 |
| Clc1ccc2c(c1)C(Br)c1cc(Cl)cc(Cl)c1-2 (stereo not given) | 101 |
| COc1c(Br)cc(C(c2cc(Br)c(OC)c(Br)c2)c2ccccc2C(=O)O)cc1Br | 96 |
| N#Cc1ccc(-c2csc(Nc3ccc4nc5n(c(=O)c4c3)CCC5)n2)cc1 | 98.2 |

---

tested on: SF-295 CNS; assay: NCI-60 one-dose screen, 48 h (100 = growth as untreated, 0 = no growth, -100 = all killed); conditions: 10 µM unless noted
The panel holds about 83,000 compounds, 20% with a hit somewhere; the sample as a whole holds those more often.
Measured property: growth (%)

| Molecule | Tested system | Scale unit | Observed result |
| --- | --- | --- | --- |
| O=c1[nH]c(N2CCC(Cc3ccccc3)CC2)nc2sc3c(c12)CCCC3 | SF-295 CNS | % | 94.6 |
| C1CCC(C(CC2CCCCN2)C2CCCCC2)CC1 (configuration not stated) | SF-295 CNS | % | -62.9 |
| Cc1ccc(OCC(=O)Nc2ccc(Oc3ccccc3)cc2)c([N+](=O)[O-])n1 | SF-295 CNS | % | 89.5 |
| CCSCC1CC(O)(c2ccccc2)C(c2ccccc2)C(c2ccc(Cl)cc2)O1 (configuration not stated) | SF-295 CNS | % | -54.1 |
| CC(C)CC1NC(=O)C(CCCN)NC(=O)C(C(C)C)NC(=O)C2CCCN2C(=O)C(Cc2ccccc2)NC(=O)C(CC(C)C)NC(=O)C(CCCN)NC(=O)C(C(C)C)NC(=O)C2CCCN2C(=O)C(Cc2ccccc2)NC1=O (configuration not stated) | SF-295 CNS | % | -77.4 |
| CO[C@H]1/C=C/O[C@@]2(C)Oc3c(C)c(O)c4c(O)c(c(/C=N/N5C(C)CN(Cc6ccc(C#N)cc6)CC5C)c(O)c4c3C2=O)NC(=O)/C(C)=C\C=C\[C@H](C)[C@H](O)[C@@H](C)[C@@H](O)[C@@H](C)[C@H](OC(C)=O)[C@@H]1C (some centres not stated) | SF-295 CNS | % | 0.574 |
| N#Cc1c(NC(=O)c2ccco2)[n+]([O-])c2cc(Cl)c(Cl)cc2[n+]1[O-] | SF-295 CNS | % | 135 |

Where do these numbers come from? They come from PubChem BioAssay (NCI).
